Taken from paper PMC3485312.

- TGT: Kly18 (Karilysin catalytic domain) (Tannerella forsythia)
- Construct: Karilysin catalytic domain (Kly18) and intact Kly48 were produced as previously described
- Sequence (D0EM77 35-195): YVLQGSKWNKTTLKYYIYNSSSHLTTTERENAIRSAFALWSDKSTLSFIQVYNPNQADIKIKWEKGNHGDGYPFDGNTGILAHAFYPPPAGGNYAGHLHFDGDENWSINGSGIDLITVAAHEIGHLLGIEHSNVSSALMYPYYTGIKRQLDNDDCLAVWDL
- PROCEDURE SUMMARY: biochemical
Residues, ends and D or L forms follow the SMILES beside them.
OUTCOME MEASURE: Ki

The recorded Ki for entry NC(=O)[C@@H]1CCCN1C(=O)[C@H](Cc1ccccc1)NC(=O)[C@H](Cc1c[nH]c2ccccc12)NC(=O)[C@@H](N)CO [15-7, (NH2)-SWFP-(CONH2)] (H-SWFP-NH2) equals 10.7 µM
